target: HIV-1 protease (Q7S mutant form) (Human immunodeficiency virus type 1 group M subtype B, UniProt P04585, Q495S); construct: made in house; test: HIV-1 Protease RET assay; assay type: biochemical; conditions: Ave. Ki (nM), RET assay, Q7S enzyme, Morrison tight binding fit
Ki values, listed per item
MEASURE NAME: Ki (nM)

COMPOUND | COMPARATOR | RECORDED RESULT
Cc1c(O)cccc1C(=O)N[C@@H](Cc1ccccc1)[C@H](O)C(=O)N1CSC(C)(C)[C@H]1C(=O)N[C@@H]1CCCc2occc21 | = | 0.27
Cc1c(O)cccc1C(=O)N[C@@H](Cc1ccccc1)[C@H](O)C(=O)N1CSC(C)(C)[C@H]1C(=O)NC1CCC(C)CC1 (stereo partly drawn) | = | 0.78
Cc1c(O)cccc1C(=O)N[C@@H](Cc1ccccc1)[C@H](O)C(=O)N1CC(F)(F)C[C@H]1C(=O)NCc1c(F)cccc1Cl | = | 2.5
C=CCNC(=O)[C@H]1N(C(=O)[C@@H](O)[C@H](Cc2ccccc2)NC(=O)O[C@H]2CCOC2)CSC1(C)C | = | 12
Cc1ccccc1CNC(=O)[C@H]1N(C(=O)[C@@H](O)[C@H](Cc2ccccc2)NC(=O)CSc2nc[nH]n2)CSC1(C)C | = | 3
Cc1c(O)cccc1C(=O)N[C@@H](Cc1ccccc1)[C@H](O)C(=O)N1CSC(C)(C)[C@H]1C(=O)N[C@H]1C=CCCC1 | < | 0.1
